# System: Escherichia coli
# assay_explanation: Antibacterial activity against Escherichia coli assessed as zone of inhibition at 10 ug after 24 hrs
# Assay type: functional
The source made the active and inactive calls. The rule behind the calls is not given here.
property: diameter of the inhibition zone (DIZ)

Sample records with diameter of the inhibition zone (DIZ):
[[record]]
line_notation = "c1cnc2c(c1)nnn2C1CCOCC1"
property = "diameter of the inhibition zone (DIZ)"
reported_value = "inactive"

[[record]]
line_notation = "Clc1cc2c(cn1)nnn2C1CCOCC1"
property = "diameter of the inhibition zone (DIZ)"
reported_value = "inactive"

[[record]]
line_notation = "Oc1ncnc2c1nnn2Cc1ccccc1"
property = "diameter of the inhibition zone (DIZ)"
reported_value = "inactive"

[[record]]
line_notation = "Cc1ccc(-n2nnc3cccnc32)c(C)c1"
property = "diameter of the inhibition zone (DIZ)"
reported_value = "inactive"

[[record]]
line_notation = "Fc1ccc(-n2nnc3cnc(Cl)cc32)cc1"
property = "diameter of the inhibition zone (DIZ)"
reported_value = "inactive"

[[record]]
line_notation = "COc1ccc(-n2nnc3cnc(Cl)cc32)cc1"
property = "diameter of the inhibition zone (DIZ)"
reported_value = "inactive"


Shifting focus to the molecule that follows.
Need diameter of the inhibition zone (DIZ), item COc1ccc(-n2nnc3cccnc32)cc1
inactive

---

# Tested on: Bacillus subtilis
# assay_explanation: Antibacterial activity against Bacillus subtilis assessed as zone of inhibition at 10 ug after 24 hrs
# Assay type: functional
Activity calls are given as the source filed them. No cut-off for these calls is given here.
property: diameter of the inhibition zone (DIZ)

[[record]]
line_notation = "Cc1ccc(-n2nnc3cccnc32)c(C)c1"
target_under_test = "Bacillus subtilis"
reported_value = "inactive"

[[record]]
line_notation = "COc1ccc(-n2nnc3cccnc32)cc1"
target_under_test = "Bacillus subtilis"
reported_value = "inactive"

[[record]]
line_notation = "c1cnc2c(c1)nnn2C1CCOCC1"
target_under_test = "Bacillus subtilis"
reported_value = "inactive"

[[record]]
line_notation = "COc1ccc(-n2nnc3cnc(Cl)cc32)cc1"
target_under_test = "Bacillus subtilis"
reported_value = "inactive"

[[record]]
line_notation = "Clc1cc2c(cn1)nnn2C1CCOCC1"
target_under_test = "Bacillus subtilis"
reported_value = "inactive"

[[record]]
line_notation = "Fc1ccc(-n2nnc3cnc(Cl)cc32)cc1"
target_under_test = "Bacillus subtilis"
reported_value = "inactive"


Shifting focus to the compound that follows.
Need diameter of the inhibition zone (DIZ), item Oc1ncnc2c1nnn2Cc1ccccc1
inactive

---

# Test system: Fusarium
# assay_explanation: Antifungal activity against Fusarium recini assessed as zone of inhibition at 10 ug after 48 hrs
# Format: functional
# particulars: read-out: DIZ
Attribute: zone of inhibition at 10 µg/disc
Give the number; mm is assumed, so skip it.

Sample records with zone of inhibition at 10 µg/disc:
[[record]]
line_notation = "Clc1cc2c(cn1)nnn2Cc1ccccc1"
reported_value = 7

[[record]]
line_notation = "Clc1cc2c(cn1)nnn2C1CCOCC1"
reported_value = 6

[[record]]
line_notation = "Cc1ccc(-n2nnc3cccnc32)c(C)c1"
reported_value = 6

[[record]]
line_notation = "Oc1ncnc2c1nnn2Cc1ccccc1"
reported_value = 6

[[record]]
line_notation = "Fc1ccc(-n2nnc3cnc(Cl)cc32)cc1"
reported_value = 7


Need zone of inhibition at 10 µg/disc, item COc1ccc(-n2nnc3cccnc32)cc1
3

Note, next up: c1cnc2c(c1)nnn2C1CCOCC1
5

Note, next up: COc1ccc(-n2nnc3cnc(Cl)cc32)cc1
7

Note, next up: Fc1ccc(-n2nnc3cccnc32)cc1
5
